# Increase of hypoxanthine after storage (%/DDI) values compiled below
test: Storage stability of crystals of 2′,3′-dideoxyinosine (increase of hypoxanthine after storage, HPLC); format: physicochemical; conditions: crystals stored at 60° C., at RH75% for 7 days; Table 4, degree of washing changed per sample
MEASURE NAME: Increase of hypoxanthine after storage (%/DDI)

INSERT INTO assay_data (compound, numeric_result) VALUES
  ('OC[C@@H]1CC[C@H](n2cnc3c(O)ncnc32)O1 [Comp. Ex. 10, 2′,3′-dideoxyinosine, reference compound]', 1.91),
  ('OC[C@@H]1CC[C@H](n2cnc3c(O)ncnc32)O1 [Ex. 11, 2′,3′-dideoxyinosine]', 0.90),
  ('OC[C@@H]1CC[C@H](n2cnc3c(O)ncnc32)O1 [Ex. 12, 2′,3′-dideoxyinosine]', 1.26),
  ('OC[C@@H]1CC[C@H](n2cnc3c(O)ncnc32)O1 [Ex. 7, 2′,3′-dideoxyinosine]', 1.19);

###

Known Increase of hypoxanthine after storage (%/DDI) of a selection of compounds
assay: Storage stability of crystals of 2′,3′-dideoxyinosine (increase of hypoxanthine after storage, HPLC); assay type: physicochemical; settings: crystals stored at 60° C., at RH75% for 7 days; Table 4, degree of washing changed per sample
MEASURE NAME: Increase of hypoxanthine after storage (%/DDI)

INSERT INTO measurements (compound, numeric_result) VALUES
  ('OC[C@@H]1CC[C@H](n2cnc3c(O)ncnc32)O1 [Ex. 13, 2′,3′-dideoxyinosine]', 1.04),
  ('OC[C@@H]1CC[C@H](n2cnc3c(O)ncnc32)O1 [Comp. Ex. 9, 2′,3′-dideoxyinosine, reference compound]', 2.21),
  ('OC[C@@H]1CC[C@H](n2cnc3c(O)ncnc32)O1 [Ex. 9, 2′,3′-dideoxyinosine]', 0.70),
  ('OC[C@@H]1CC[C@H](n2cnc3c(O)ncnc32)O1 [Comp. Ex. 8, 2′,3′-dideoxyinosine, reference compound]', 2.20),
  ('OC[C@@H]1CC[C@H](n2cnc3c(O)ncnc32)O1 [Ex. 6, 2′,3′-dideoxyinosine]', 1.03),
  ('OC[C@@H]1CC[C@H](n2cnc3c(O)ncnc32)O1 [Comp. Ex. 7, 2′,3′-dideoxyinosine, reference compound]', 2.24),
  ('OC[C@@H]1CC[C@H](n2cnc3c(O)ncnc32)O1 [Comp. Ex. 6, 2′,3′-dideoxyinosine, reference compound]', 2.47);

Reference for the values: patent US8034924B2
